Just for reference, patent US12558428B2 is where these values come from.

Test system: MCF7 cells (ECACC #86012803)
Assay: Cellular growth inhibition assay, MCF7 cells purchased from ECACC
Assay type: cell-based
Conditions: Homo sapiens, 144 h; MCF7 cells purchased from ECACC (#86012803); six days treatment; CellTiter-Glo 2.0 viability
Answer each item with its documented GI50.

Solved cases (2 shown):
compound	GI50
Cc1sc2c(c1C)C(c1ccc(N3CCC(O)(CN4CCN(c5cc(F)c(C6=C(c7ccccc7)CCCc7cc(C(=O)O)ccc76)c(F)c5)CC4)CC3)cc1)=N[C@@H](C)c1nnc(C)n1-2 [IV-69]	< 50 nM
Cc1sc2c(c1C)C(c1ccc(N3CC(CN4CCN(CC5CN(c6cc(F)c(C7=C(c8ccccc8)CCCc8cc(C(=O)O)ccc87)cc6F)C5)CC4)C3)cc1)=N[C@@H](C)c1nnc(C)n1-2 [IV-70]	< 50 nM

Pending compound:
Asked: Reported GI50 for COc1cc(N2CCC(O)(CN3CCN(c4cc(F)c([C@@H]5c6ccc(O)cc6CC[C@@H]5c5ccc(F)cc5)c(F)c4)CC3)CC2)ccc1C1=N[C@@H](C)c2nnc(C)n2-c2sc(C)c(C)c21 [III-358] : what is it?
Given back: < 50 nM

====

Target: BRD4-BD1 (Homo sapiens, UniProt O60885)
Assay: Binding affinity to BRD4-BD1 (bromoKdELECT assay)
Answer each item with its documented Kd.

molecule	Kd
CCN(CCOCCOCCNC(=O)C[C@@H]1N=C(c2ccc(Cl)cc2)c2c(sc(C)c2C)-n2c(C)nnc21)CCOc1ccc(C(=O)c2c(-c3ccc(O)cc3)sc3cc(O)ccc23)cc1 [I-3]	< 0.05 µM

Pending molecule:
Asked: Reported Kd for CCN(CCCCCCCCNC(=O)C[C@@H]1N=C(c2ccc(Cl)cc2)c2c(sc(C)c2C)-n2c(C)nnc21)CCOc1ccc(C(=O)c2c(-c3ccc(O)cc3)sc3cc(O)ccc23)cc1 [I-2] : what is it?
Given back: 0.05 to 0.5 µM

====

Tested on: T-Rex 293 cells lacking increased expression of estrogen receptor alpha protein
Assay: Cellular growth inhibition assay, T-Rex 293 cells, (−) doxycycline
Assay type: cell-based
Conditions: Table 7-A; T-Rex 293 cells without doxycycline (lacking increased ERα expression); 72 hours; CellTiter-Glo; read-out: (−) Dox GI50
Answer each item with its documented GI50.

compound	GI50
Cc1sc2c(c1C)C(c1ccc(N3CCC(CN4CCN(c5ccc([C@H]6c7ccc(O)cc7CC[C@H]6c6ccccc6)cc5)CC4)CC3)cc1)=N[C@H](Cc1ncco1)c1nnc(C)n1-2 [III-71]	> 2500 nM
Cc1sc2c(c1C)C(c1ccc(NCCN3CCN(CCOc4ccc([C@@H]5c6ccc(O)cc6CC[C@@H]5c5ccccc5)cc4)CC3)cc1)=NC(Cc1ncco1)c1nnc(C)n1-2 (stereo partly drawn) [III-32]	50 to 500 nM
COc1ccc(-c2sc3cc(OC)ccc3c2C(=O)c2ccc(OCCN3CCC4(CC3)CC(Oc3ccc(C5=N[C@@H](Cc6ncco6)c6nnc(C)n6-c6sc(C)c(C)c65)cc3)C4)cc2)cc1 [V-2]	500 to 2500 nM
CCN(Cc1ccc(CCN2CC[C@@H](OCCOCCOc3ccc(C4=N[C@@H](C)c5nnc(C)n5-c5sc(C)c(C)c54)cc3)C2)cc1)c1cc(OC)ccc1C1CCc2cc(O)ccc2C1 (stereo partly drawn) [I-34b]	500 to 2500 nM
Cc1sc2c(c1C)C(c1ccc(N3CC(CN4CC(CC5CN(c6ccc([C@@H]7c8ccc(O)cc8CC[C@@H]7c7ccccc7)cc6)C5)C4)C3)cc1)=N[C@@H](C)c1nnc(C)n1-2 [III-221]	50 to 500 nM

Pending compound:
Asked: Reported GI50 for Cc1sc2c(c1C)C(c1ccc(N3CCC(CN4CCN(c5ccc([C@H]6c7ccc(O)cc7CC[C@H]6c6ccccc6)cc5)CC4)CC3)cc1)=N[C@H](Cc1ncco1)c1nnc(C)n1-2 [III-72] : what is it?
Given back: 500 to 2500 nM

====

Test system: MCF7 cells (ECACC #86012803)
Assay: Cellular growth inhibition assay, MCF7 cells purchased from ECACC
Type: cell-based
Settings: Homo sapiens, 144 h; MCF7 cells purchased from ECACC (#86012803); six days treatment; CellTiter-Glo 2.0 viability
Answer each item with its documented GI50.

COc1cc(N2CCC(O)(CN3CCN(c4cc(F)c([C@@H]5c6ccc(O)cc6CC[C@@H]5c5ccccc5)cc4F)CC3)CC2)ccc1C1=N[C@@H](C)c2nnc(C)n2-c2sc(C)c(C)c21 0.05 to 0.5 µM

Please go through the list and note GI50 for each molecule.
1. COc1cc(C2CCN(CC3CCC4(CC3)CN(c3ccc(C5=N[C@@H](C)c6nnc(C)n6-c6sc(C)c(C)c65)cc3)C4)CC2)ccc1C1=C(c2ccccc2Cl)CCCc2cc(C(=O)O)ccc21
2. COc1cc(N2CCC(O)(CN3CCN(c4cc(F)c([C@H]5c6ccc(O)cc6CC[C@H]5c5ccccc5)cc4F)CC3)CC2)ccc1C1=N[C@@H](C)c2nnc(C)n2-c2sc(C)c(C)c21
3. Cc1sc2c(c1C)C(c1ccc(N3CC4(CC(CN5CCN(c6cc(F)c(C7=C(c8ccccc8F)CCCc8cc(C(=O)O)ccc87)cc6F)CC5)C4)C3)cc1)=N[C@@H](C)c1nnc(C)n1-2
4. COc1cc(N2CCN(CC3(O)CCN(c4ccc(C5=N[C@@H](C)c6nnc(C)n6-c6sc(C)c(C)c65)cc4)CC3)CC2)c(F)cc1C1=C(c2ccccc2F)CCCc2cc(C(=O)O)ccc21

Given back:
1: < 0.05 µM; 2: 0.05 to 0.5 µM; 3: < 0.05 µM; 4: < 0.05 µM

Please go through the list and note GI50 for each molecule.
1. COc1cc(N2CCN(CC3(O)CCN(c4ccc(C5=N[C@@H](C)c6nnc(C)n6-c6sc(C)c(C)c65)c(F)c4)CC3)CC2)ccc1[C@H]1c2ccc(O)cc2CC[C@H]1c1ccc(C(F)(F)F)cc1
2. COc1cc(N2CCC(O)(CN3CCN(c4ccc([C@H]5c6ccc(O)cc6CC[C@H]5c5ccc(F)cc5)cc4F)CC3)CC2)ccc1C1=N[C@@H](C)c2nnc(C)n2-c2sc(C)c(C)c21
3. COc1cc(N2CCN(CC3(O)CCN(c4ccc(C5=N[C@@H](C)c6nnc(C)n6-c6sc(C)c(C)c65)cc4)CC3)CC2)ccc1C1=C(c2ccccc2)CCCc2cc(C(=O)O)ccc21
4. COc1cc(N2CCN(CC3(O)CCN(c4ccc(C5=N[C@@H](C)c6nnc(C)n6-c6sc(C)c(C)c65)cc4)CC3)CC2)ccc1[C@@H]1c2ccc(O)cc2CC[C@@H]1c1ccc(C(F)(F)F)cc1
5. COc1cc(N2CCN(CC3(O)CCN(c4ccc(C5=N[C@@H](C)c6nnc(C)n6-c6sc(C)c(C)c65)cc4)CC3)CC2)ccc1[C@H]1c2ccc(O)cc2CC[C@H]1c1ccc(C(F)(F)F)cc1

Given back:
1. 0.05 to 0.5 µM
2. 0.05 to 0.5 µM
3. < 0.05 µM
4. < 0.05 µM
5. 0.5 to 2.5 µM

====

Answer each item with its documented Kd.
Molecular target: BRD4-BD2 (Homo sapiens, UniProt O60885)
Assay: Binding affinity to BRD4-BD2 (bromoKdELECT assay)

compound	Kd
CCN(CCCCCCCCNC(=O)C[C@@H]1N=C(c2ccc(Cl)cc2)c2c(sc(C)c2C)-n2c(C)nnc21)CCOc1ccc(C(=O)c2c(-c3ccc(O)cc3)sc3cc(O)ccc23)cc1 [I-2]	< 50 nM

Pending compound:
Asked: Reported Kd for CCN(CCOCCOCCNC(=O)C[C@@H]1N=C(c2ccc(Cl)cc2)c2c(sc(C)c2C)-n2c(C)nnc21)CCOc1ccc(C(=O)c2c(-c3ccc(O)cc3)sc3cc(O)ccc23)cc1 [I-3] : what is it?
Given back: < 50 nM

====

Answer each item with its documented GI50.
Tested on: MCF7 cells (ECACC #86012803)
Assay: Cellular growth inhibition assay, MCF7 cells purchased from ECACC
Format: cell-based
Conditions: Homo sapiens, 144 h; MCF7 cells purchased from ECACC (#86012803); six days treatment; CellTiter-Glo 2.0 viability

molecule	GI50
Cc1sc2c(c1C)C(c1ccc(N3CCC(O)(CN4CCN(c5cc(F)c(C6=C(c7ccccc7)CCCc7cc(C(=O)O)ccc76)cc5F)CC4)CC3)cc1)=N[C@@H](C)c1nnc(C)n1-2 [IV-67]	< 50 nM

Please go through the list and note GI50 for each molecule.
1. COc1cc(N2CCN(CC3CCN(c4ccc(C5=N[C@@H](C)c6nnc(C)n6-c6sc(C)c(C)c65)c(F)c4)CC3)CC2)ccc1[C@@H]1c2ccc(O)cc2CC[C@@H]1c1ccc(C(F)(F)F)cc1 [III-351]
2. COc1cc(N2CCN(CC3CCN(c4ccc(C5=N[C@@H](C)c6nnc(C)n6-c6sc(C)c(C)c65)c(F)c4)CC3)CC2)ccc1[C@H]1c2ccc(O)cc2CC[C@H]1c1ccc(C(F)(F)F)cc1 [III-350]

Given back:
["< 50 nM", "50 to 500 nM"]
